# experimentSummary: Tissue distribution of radioactivity after intravenous injection
# Type: in vivo, BALB/C mice
# runParameters: mouse, bone, iv; 1 h, i.v.; read-out: Percent of Injected Dose per Gram, Bone
property: tissue uptake at 1 h (%ID/g)
Give bare numbers, in %ID/g.

Form field tissue uptake at 1 h, entry O=[N+]([O-])c1nccn1[C@@H]1O[C@H](CI)[C@@H](O)[C@@H]1O : 1.15

* * *

# experimentSummary: Tissue distribution of radioactivity after intravenous injection
# Assay type: in vivo, BALB/C mice
# runParameters: mouse, heart, iv; 24 h, i.v.; read-out: Percent of Injected Dose per Gram, Heart
# From the text: Tables 1 and 2 show the percent of injected IAZG and IAZA respectively per gram of wet tissue for selected tissues excised from BALB/C mice bearing EMT-6 tumors. This tumor model is known to have a high hypoxic fraction (0.33) (16). […] Hepatobiliary excretion may play a role in blood clearance as evidenced by elevated liver radioactivity and the appearance of activity in the intestine. […] This supposition is supported by the persistence of liver radioactivity at longer time periods. […]
property: tissue uptake at 24 h (%ID/g)
Answers are plain numbers, in %ID/g.

Form field tissue uptake at 24 h, entry O=[N+]([O-])c1nccn1[C@@H]1O[C@H](CI)[C@@H](O)[C@@H]1O [IAZA] : 0.042

* * *

# experimentSummary: Tissue distribution of radioactivity after intravenous injection
# Format: in vivo, BALB/C mice
# runParameters: mouse, spleen, iv; 1 h, i.v.; read-out: Percent of Injected Dose per Gram, Spleen
property: tissue uptake at 1 h
Answer with the value and then the unit.

Form field tissue uptake at 1 h, entry O=[N+]([O-])c1nccn1[C@@H]1O[C@H](CI)[C@@H](O)[C@@H]1O : 2.48 %ID/g

* * *

# experimentSummary: Tissue distribution of radioactivity after intravenous injection
# Assay type: in vivo, BALB/C mice
# runParameters: mouse, carcass, iv; 4 h, i.v.; read-out: Percent of Injected Dose per Gram, Carcass
property: tissue uptake at 4 h (%ID/g)
Answers are plain numbers, in %ID/g.

Form field tissue uptake at 4 h, entry O=[N+]([O-])c1nccn1[C@@H]1O[C@H](CI)[C@@H](O)[C@@H]1O [IAZA] : 0.89

* * *

# experimentSummary: Tissue distribution of radioactivity after intravenous injection
# Format: in vivo, BALB/C mice
# runParameters: mouse, spleen, iv; 2 h, i.v.; read-out: Percent of Injected Dose per Gram, Spleen
property: tissue uptake at 2 h (%ID/g)
One number for each entry, in %ID/g.

Form field tissue uptake at 2 h, entry O=[N+]([O-])c1nccn1[C@@H]1O[C@H](CI)[C@@H](O)[C@@H]1O : 0.93

* * *

# experimentSummary: Tissue distribution of radioactivity after intravenous injection
# Assay type: in vivo, BALB/C mice
# runParameters: mouse, intestine, iv; 8 h, i.v.; read-out: Percent of Injected Dose per Gram, Intestine
Assignment: determine reported tissue uptake at 8 h for the given compounds.
Answer with the value and then the unit.

smilesCode | tissue uptake at 8 h
O=[N+]([O-])c1nccn1[C@@H]1O[C@H](CI)[C@@H](O)[C@@H]1O | 0.77 %ID/g

Please find the next compound below.
Form field tissue uptake at 8 h, entry O=[N+]([O-])c1nccn1[C@@H]1O[C@H](CI)[C@H](O)[C@H](O)[C@H]1O : 0.17 %ID/g

* * *

# experimentSummary: Tissue distribution of radioactivity after intravenous injection
# Type: in vivo, BALB/C mice
# runParameters: mouse, bone, iv; 24 h, i.v.; read-out: Percent of Injected Dose per Gram, Bone
property: tissue uptake at 24 h (%ID/g)
Numbers only, in %ID/g.

Form field tissue uptake at 24 h, entry O=[N+]([O-])c1nccn1[C@@H]1O[C@H](CI)[C@@H](O)[C@@H]1O [IAZA] : 0.022

Origin of the recorded values: patent US5401490A
